PROTOCOL NOTES: RP, Waters ACQUITY UPLC BEH C18, 38 °C, 0.24 mL/min; A: water + 0.1% formic acid, pH 3; B: acetonitrile + 0.1% formic acid, pH 3; gradient (min/%B) 0/0 0.25/0 0.4/9 0.8/17 1.9/100 2.1/100 2.11/0 3/0
STUDY CONDITIONS: stereoisomer not certain
Structures can show the parent of a compound that is named as a salt.
PARAMETER MEASURED: LC retention time

>>> result("CC1CCC2(NC1)OC1CC3C4CC=C5CC(O)CCC5(C)C4CCC3(C)C1C2C (stereo not given) [Solasodine]")
"1.72 min"
>>> result("CC(CCC(=O)O)C(=O)O (stereo not given) [2-Methylglutaric Acid]")
"1.16 min"
>>> result("CNC1(C)C2CCC(C2)C1(C)C (stereo not given) [Mecamylamine hydrochloride]")
"1.35 min"
>>> result("O=S(=O)(O)CCN1CCN(CCS(=O)(=O)O)CC1 [PIPES]")
"0.16 min"

Now look at this one.
## Task # get_value(readout='LC retention time', item= COc1cc(-c2[o+]c3cc(O)cc(O)c3cc2OC2OCC(O)C(O)C2O)ccc1O (stereo not drawn) [Peonidin-3-O-alpha-arabinopyranoside] )
## Result 1.3 min

====

PROTOCOL NOTES: RP, Waters ACQUITY UPLC BEH C18, 38 °C, 0.24 mL/min; A: water + 0.1% formic acid, pH 3; B: acetonitrile + 0.1% formic acid, pH 3; gradient (min/%B) 0/0 0.25/0 0.4/9 0.8/17 1.9/100 2.1/100 2.11/0 3/0
STUDY CONDITIONS: stereoisomer not certain
Where a name gives a salt, the structure may show the parent alone.
Kindly state log10 LC retention time for each of the entries shown.
Please be aware that the numbers have been log10-transformed from LC retention time in min.

// each listed compound needs a value for log10 LC retention time
1. CC(=O)OC[C@H](N)C(=O)O [O-acetyl-L-serine hydrochloride]
2. C[n+]1cccc(C(=O)[O-])c1 [Trigonelline hydrochloride]
3. Oc1cc(O)c2cc(OC3OCC(O)C(O)C3O)c(-c3ccc(O)c(O)c3)[o+]c2c1 (stereo not drawn) [Cyanidin-3-O-alpha-arabinopyranoside]
4. CC(N)(CO)C(=O)O (racemic)
5. OCC1OC(OC2C(CO)OC(OC3C(CO)OC(O)C(O)C3O)C(O)C2O)C(O)C(O)C1O (centres undefined) [Maltotriose hydrate]

## Result
1: -0.72; 2: -0.72; 3: 0.09; 4: -0.77; 5: -0.66

Here are 3 compounds. What values of log10 LC retention time were reported for them?
1. O=P(O)(O)O[C@H]1O[C@H](CO)[C@H](O)[C@H](O)[C@H]1O [alpha-D-Galactose-1-phosphate dipotassium salt pentahydrate]
2. NCC(N)C(=O)O (racemic) [DL-2,3-Diaminopropionic acid monohydrochloride]
3. COc1ccc(C=CC(=O)O)cc1

## Result
1. -0.80
2. -0.82
3. 0.22

## Task Which log10 LC retention time is reported for this compound? O=C(O)CCCCCCC(=O)O
## Result 0.15
